ASSAYED_SYSTEM: ATP-dependent translocase ABCB1 (Homo sapiens, UniProt P08183)
Sequence (P08183 whole entry): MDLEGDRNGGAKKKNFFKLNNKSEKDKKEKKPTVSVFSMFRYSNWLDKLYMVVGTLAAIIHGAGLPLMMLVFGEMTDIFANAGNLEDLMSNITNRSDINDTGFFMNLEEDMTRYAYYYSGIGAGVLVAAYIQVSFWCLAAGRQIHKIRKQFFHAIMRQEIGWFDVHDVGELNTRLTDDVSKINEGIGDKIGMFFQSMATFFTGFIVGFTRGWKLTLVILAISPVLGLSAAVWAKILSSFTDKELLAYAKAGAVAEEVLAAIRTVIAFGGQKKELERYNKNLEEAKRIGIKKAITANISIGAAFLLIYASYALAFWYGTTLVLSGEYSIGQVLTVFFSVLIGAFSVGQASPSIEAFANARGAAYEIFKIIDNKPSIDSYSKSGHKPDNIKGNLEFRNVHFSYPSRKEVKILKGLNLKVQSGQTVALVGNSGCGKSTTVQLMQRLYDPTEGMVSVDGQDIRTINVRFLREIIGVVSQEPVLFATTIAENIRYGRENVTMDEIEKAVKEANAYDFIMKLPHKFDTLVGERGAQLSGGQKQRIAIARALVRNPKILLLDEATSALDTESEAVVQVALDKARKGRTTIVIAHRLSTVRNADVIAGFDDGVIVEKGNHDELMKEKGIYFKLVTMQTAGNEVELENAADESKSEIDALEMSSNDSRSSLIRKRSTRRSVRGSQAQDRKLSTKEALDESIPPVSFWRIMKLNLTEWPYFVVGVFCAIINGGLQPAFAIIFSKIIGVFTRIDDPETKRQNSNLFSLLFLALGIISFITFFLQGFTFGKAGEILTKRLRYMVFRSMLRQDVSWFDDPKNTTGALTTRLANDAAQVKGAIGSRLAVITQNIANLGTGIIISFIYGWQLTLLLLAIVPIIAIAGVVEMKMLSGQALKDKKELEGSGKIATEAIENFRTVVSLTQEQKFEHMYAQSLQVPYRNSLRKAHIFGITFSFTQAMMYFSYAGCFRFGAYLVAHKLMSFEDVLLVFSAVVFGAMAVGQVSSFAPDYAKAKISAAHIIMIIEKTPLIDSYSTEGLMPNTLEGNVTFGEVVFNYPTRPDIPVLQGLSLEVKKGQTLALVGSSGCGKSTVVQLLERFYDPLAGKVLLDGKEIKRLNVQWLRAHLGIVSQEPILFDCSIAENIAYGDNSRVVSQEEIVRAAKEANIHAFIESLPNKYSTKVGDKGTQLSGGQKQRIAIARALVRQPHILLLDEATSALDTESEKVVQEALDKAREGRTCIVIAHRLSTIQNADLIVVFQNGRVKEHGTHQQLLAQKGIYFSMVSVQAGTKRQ
PROCEDURE_TEXT: Inhibition of ABCB1 in human KB-V1 cells using calcein-AM as substrate measured after 10 mins by fluorescence assay
Type: cell-based
TEST_CONDITIONS: read-out: IC50
pIC50: −log10 of the molar value.
QUANTITY_MEASURED: pIC50

COc1cc2c(cc1OC)CN(CCc1ccc(-n3cc(-c4ccc(C(=O)C(C)C)c(NC(=O)c5ccc6ccccc6n5)c4)nn3)cc1)CC2 : ≤ 4.66
CCC(=O)c1ccc(-c2cn(-c3ccc(CCN4CCc5cc(OC)c(OCCOCCOCCOC)cc5C4)cc3)nn2)cc1NC(=O)c1ccc2ccccc2n1 : ≤ 4.35
COCCOCCOCCOc1cc2c(cc1OC)CCN(Cc1ccc(-n3cc(-c4ccc(C(=O)OC)c(NC(=O)c5ccc6ccccc6n5)c4)nn3)cc1)C2 : ≤ 4.60
COC(=O)c1ccc(C(=O)Nc2ccc(CCN3CCc4cc(OC)c(OC)cc4C3)cc2)cc1NC(=O)c1ccc2ccccc2n1 : ≤ 4.92

Incoming: Checklist item: pIC50 tested on ATP-dependent translocase ABCB1 (Homo sapiens, UniProt P08183), entry COCCOCCOCCOc1cc2c(cc1OC)CCN(CCc1ccc(-n3cc(-c4ccc(C(=O)OC)c(NC(=O)c5ccc6ccccc6n5)c4)nn3)cc1)C2 , value?
Outgoing: 5.79
